Reference source for all entries: ChEMBL document CHEMBL1135425

Entries and their Complex formation values follow.
# subject.of.test: DNA topoisomerase II (Homo sapiens) (UniProt P11388+Q02880)
# procedure.text: Percentage of intracellular covalent DNA-topoisomerase II complexes formed
# Type: cell-based

{"compound": "COc1cc([C@@H]2c3cc4c(cc3[C@@H](Nc3ccc(F)cc3)[C@H]3COC(=O)[C@H]23)OCO4)cc(OC)c1O", "Complex formation": "213%"}

input: Entry COc1cc2c(cc1OC)[C@@H](c1cc(OC)c(O)c(OC)c1)[C@H]1C(=O)OC[C@@H]1C2Nc1ccc([N+](=O)[O-])cc1 (some centres undefined) : reported Complex formation = ?
output: 75%

input: Follow-up entry: `COc1cc([C@@H]2c3cc4c(cc3[C@@H](Nc3cc(F)cc(F)c3)[C@H]3COC(=O)[C@H]23)OCO4)cc(OC)c1O`
output: 115%

input: Follow-up entry: `COc1cc([C@@H]2c3cc4c(cc3[C@@H](NC(=O)NCCCl)[C@H]3COC(=O)[C@H]23)OCO4)cc(OC)c1O`
output: 143%

---

Entries and their Complex formation values follow.
# subject.of.test: DNA topoisomerase II (Homo sapiens) (UniProt P11388+Q02880)
# procedure.text: Percentage of intracellular covalent DNA-topoisomerase II complexes formed
# Format: cell-based
Field format: number, assumed %, no unit text.

Check out these entries, answers already filled in.
{"compound": "COc1cc([C@@H]2c3cc4c(cc3[C@@H](Nc3ccccc3)[C@H]3COC(=O)[C@H]23)OCO4)cc(OC)c1O", "unit.label": "%", "Complex formation": 243}
{"compound": "COc1cc([C@@H]2c3cc4c(cc3[C@@H](NCc3ccc([N+](=O)[O-])cc3)[C@H]3COC(=O)[C@H]23)OCO4)cc(OC)c1O", "unit.label": "%", "Complex formation": 216}
{"compound": "COc1cc([C@@H]2c3cc4c(cc3[C@@H](NCCO)[C@H]3COC(=O)[C@H]23)OCO4)cc(OC)c1O", "unit.label": "%", "Complex formation": 121}

Field: next compound
input: Entry COc1cc([C@@H]2c3cc4c(cc3C(Nc3ccc([N+](=O)[O-])cc3)[C@H]3COC(=O)[C@H]23)OCO4)cc(O)c1O (some centres undefined) : reported Complex formation = ?
output: 200

---

Entries and their Complex formation values follow.
# subject.of.test: DNA topoisomerase II (Homo sapiens) (UniProt P11388+Q02880)
# procedure.text: Percentage of intracellular covalent DNA-topoisomerase II complexes formed
# Format: cell-based
Field format: number, assumed %, no unit text.

Check out these entries, answers already filled in.
{"record.smiles": "COc1cc([C@@H]2c3cc4c(cc3[C@@H](NCCCO)[C@H]3COC(=O)[C@H]23)OCO4)cc(OC)c1O", "Complex formation [%]": 89.2}
{"record.smiles": "COc1ccc(N[C@@H]2c3cc4c(cc3[C@@H](c3cc(OC)c(O)c(OC)c3)[C@H]3C(=O)OC[C@@H]32)OCO4)cc1OC", "Complex formation [%]": 180}
{"record.smiles": "COc1cc([C@@H]2c3cc4c(cc3[C@@H](Nc3ccc(Cl)cc3)[C@H]3COC(=O)[C@H]23)OCO4)cc(OC)c1O", "Complex formation [%]": 99}
{"record.smiles": "COC(=O)c1cc(N[C@@H]2c3cc4c(cc3[C@@H](c3cc(OC)c(O)c(OC)c3)[C@H]3C(=O)OC[C@@H]32)OCO4)cc(C(=O)OC)c1", "Complex formation [%]": 50}

input: Entry `COc1cc([C@@H]2c3cc4c(cc3[C@@H](NC(C)C)[C@H]3COC(=O)[C@H]23)OCO4)cc(OC)c1O` : reported Complex formation = ?
output: 109

input: Follow-up entry: `COc1cc([C@@H]2c3cc4c(cc3[C@@H](NCc3cccc(Cl)c3)[C@H]3COC(=O)[C@H]23)OCO4)cc(OC)c1O`
output: 159

input: Follow-up entry: `COc1cc([C@@H]2c3cc4c(cc3[C@@H](O)[C@H]3COC(=O)[C@H]23)OCO4)c(Cl)c(OC)c1O`
output: 15.6

---

# subject.of.test: DNA topoisomerase II (Homo sapiens) (UniProt P11388+Q02880)
# procedure.text: Percentage of intracellular covalent DNA-topoisomerase II complexes formed
# Format: cell-based
Rule for this label: true (1) means Complex formation is less than 90%; false (0) means Complex formation is at least 90%.

input: Hi there! Is Complex formation for `COc1ccc(N[C@@H]2c3cc4c(cc3[C@@H](c3cc(OC)c(O)c(OC)c3)[C@H]3C(=O)OC[C@@H]32)OCO4)c([N+](=O)[O-])c1` below 90%, do you know?
output: true (1)

input: Follow-up entry: `COc1cc([C@@H]2c3cc4c(cc3[C@@H](Nc3cc([N+](=O)[O-])ccc3O)[C@H]3COC(=O)[C@H]23)OCO4)cc(OC)c1O`
output: true (1)

input: Follow-up entry: COC1=CC([C@@H]2c3cc4c(cc3C(NC(N=O)C(C)C)[C@H]3COC(=O)[C@H]23)OCO4)=CC(=O)C1(O)CC(C)=O (some centres not stated)
output: true (1)

input: Follow-up entry: `COc1cc([C@@H]2c3cc4c(cc3[C@@H](N)[C@H]3COC(=O)[C@H]23)OCO4)cc(OC)c1O`
output: true (1)

input: Follow-up entry: `COc1cc([C@@H]2c3cc4c(cc3[C@@H](Nc3cccc(N)c3)[C@H]3COC(=O)[C@H]23)OCO4)cc(OC)c1O`
output: false (0)

input: Follow-up entry: `COc1cc([C@@H]2c3cc4c(cc3[C@@H](OC(=O)c3ccccc3)[C@H]3COC(=O)[C@H]23)OCO4)cc(OC)c1O`
output: false (0)

input: Follow-up entry: `COc1cc([C@@H]2c3cc4c(cc3[C@@H](Nc3ccccn3)[C@H]3COC(=O)[C@H]23)OCO4)cc(OC)c1O`
output: false (0)

---

# subject.of.test: DNA topoisomerase II (Homo sapiens) (UniProt P11388+Q02880)
# procedure.text: Percentage of intracellular covalent DNA-topoisomerase II complexes formed
# Format: cell-based
quantity.measured: Complex formation

{"compound": "COc1cc([C@@H]2c3cc4c(cc3[C@@H](Nc3ccc(N)cc3)[C@H]3COC(=O)[C@H]23)OCO4)cc(OC)c1O", "Complex formation": "330%"}
{"compound": "COC1=CC([C@@H]2c3cc4c(cc3C(NC(=O)N(C)N=O)[C@H]3COC(=O)[C@H]23)OCO4)=CC(=O)C1=O (some centres undefined)", "Complex formation": "41%"}
{"compound": "COc1cc([C@@H]2c3cc4c(cc3[C@@H](Nc3ccc([N+](=O)[O-])cc3)[C@H]3COC(=O)[C@H]23)OCO4)cc(OC)c1O", "Complex formation": "323%"}

Field: next compound
input: Entry `COc1cc([N+](=O)[O-])c(OC)cc1N[C@@H]1c2cc3c(cc2[C@@H](c2cc(OC)c(O)c(OC)c2)[C@H]2C(=O)OC[C@@H]21)OCO3` : reported Complex formation = ?
output: 4.4%

---

# subject.of.test: DNA topoisomerase II (Homo sapiens) (UniProt P11388+Q02880)
# procedure.text: Percentage of intracellular covalent DNA-topoisomerase II complexes formed
# Assay type: cell-based
Entries and their Complex formation values follow.
Field format: number, assumed %, no unit text.

{"molecule": "CCOC(=O)CC[C@H](NC(=O)c1ccc(N[C@@H]2c3cc4c(cc3[C@@H](c3cc(OC)c(O)c(OC)c3)[C@H]3C(=O)OC[C@@H]32)OCO4)cc1)C(=O)OCC", "quantity.measured": "Complex formation", "recorded.number": 83}
{"molecule": "COc1cc([C@@H]2c3cc4c(cc3C(Nc3ccc5c(c3)OCCO5)[C@H]3COC(=O)[C@H]23)OCO4)cc(O)c1O (stereo partly drawn)", "quantity.measured": "Complex formation", "recorded.number": 119}
{"molecule": "COC(=O)c1cccc(NC2c3cc4c(cc3[C@@H](c3cc(O)c(O)c(OC)c3)[C@H]3C(=O)OC[C@H]23)OCO4)c1 (stereo partly drawn)", "quantity.measured": "Complex formation", "recorded.number": 94}

input: Entry `COc1cc([C@@H]2c3cc4c(cc3[C@@H](Nc3cc(C(F)(F)F)cc(C(F)(F)F)c3)[C@H]3COC(=O)[C@H]23)OCO4)cc(OC)c1O` : reported Complex formation = ?
output: 21

input: Follow-up entry: `COc1cc([C@@H]2c3cc4c(cc3[C@@H](Nc3cccc(Cl)c3)[C@H]3COC(=O)[C@H]23)OCO4)cc(OC)c1O`
output: 51

---

# subject.of.test: DNA topoisomerase II (Homo sapiens) (UniProt P11388+Q02880)
# procedure.text: Percentage of intracellular covalent DNA-topoisomerase II complexes formed
# Format: cell-based
quantity.measured: Complex formation
The answer consists of two parts: a number and, after it, its unit.

{"compound": "COc1cc([C@@H]2c3cc4c(cc3[C@@H](O)[C@H]3COC(=O)[C@H]23)OCO4)cc(OC)c1O", "Complex formation": "42.2%"}
{"compound": "COc1cc([C@@H]2c3cc4c(cc3[C@@H](NCc3ccc(F)cc3)[C@H]3COC(=O)[C@H]23)OCO4)cc(OC)c1O", "Complex formation": "169%"}
{"compound": "COc1cc([C@@H]2c3cc4c(cc3[C@@H](Nc3ccc(C#N)cc3)[C@H]3COC(=O)[C@H]23)OCO4)cc(OC)c1O", "Complex formation": "211%"}
{"compound": "COc1cc([C@@H]2c3cc4c(cc3[C@@H](Oc3ccc(F)cc3)[C@H]3COC(=O)[C@H]23)OCO4)cc(OC)c1O", "Complex formation": "57%"}

input: Entry `COc1cc(N[C@@H]2c3cc4c(cc3[C@@H](c3cc(OC)c(O)c(OC)c3)[C@H]3C(=O)OC[C@@H]32)OCO4)c(C)cc1[N+](=O)[O-]` : reported Complex formation = ?
output: 3.5%

input: Follow-up entry: `COc1cc([C@@H]2c3cc4c(cc3[C@@H](NC(=O)c3cccc(N)c3)[C@H]3COC(=O)[C@H]23)OCO4)cc(OC)c1O`
output: 149%

input: Follow-up entry: `COc1cc([C@@H]2c3cc4c(cc3[C@@H](Nc3ccc(C(=O)O)cc3)[C@H]3COC(=O)[C@H]23)OCO4)cc(OC)c1O`
output: 6.9%
